Ref: patent US20050112713A1

Molecular target: S. aureus Fab I (Staphylococcus aureus, UniProt Q6GI75)
Construct: made in house; host or cells: E. coli
Sequence (Q6GI75 whole entry): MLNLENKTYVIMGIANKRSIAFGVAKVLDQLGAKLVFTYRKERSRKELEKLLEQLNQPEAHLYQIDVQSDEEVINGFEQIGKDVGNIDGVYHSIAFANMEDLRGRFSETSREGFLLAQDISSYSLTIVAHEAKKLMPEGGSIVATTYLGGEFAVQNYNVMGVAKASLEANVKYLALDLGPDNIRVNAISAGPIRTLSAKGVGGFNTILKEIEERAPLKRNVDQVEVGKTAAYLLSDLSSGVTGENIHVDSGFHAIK
Test: Inhibition of non his tagged (native) Fab I by saturated fatty acyl CoA's, NADH consumption at 340 nm
Type: biochemical
Conditions: read-out: Mean IC50 (uM) (n = 2), 1 mM crotonoyl CoA and 1 mM NADH, 100 mM NaADA, pH 6.5
Protocol: Crotonoyl CoA was used as the substrate for Fab I and all activity measurements were based on a decrease in absorbance at 340 nm due to the utilization of NADH (FIG. 1). All assays were performed with 100 mM NaADA, pH 6.5 buffer. Acyl-CoA inhibition data was performed in the presence of 1 mM crotonoyl CoA and 1 mM NADH.
Property measured: IC50 (µM)
The response must be a number in µM with no trailing unit.

Compound | Test result
CCCCCCCC(=O)SCCNC(=O)CCNC(=O)C(O)C(C)(C)COP(=O)(O)OP(=O)(O)OC[C@H]1O[C@@H](n2cnc3c(N)ncnc32)[C@H](O)[C@@H]1OP(=O)(O)O (stereo partly drawn) | 248

# lookup: IC50 of `CCCCCCCCCCCCCC(=O)SCCNC(=O)CCNC(=O)[C@H](O)C(C)(C)COP(=O)(O)OP(=O)(O)OC[C@H]1O[C@@H](n2cnc3c(N)ncnc32)[C@H](O)[C@@H]1OP(=O)(O)O`
23.1
